inhibition for assorted compounds
Molecular target: Adenine DNA glycosylase (Homo sapiens) (UniProt Q9UIF7)
Sequence (Q9UIF7 whole entry): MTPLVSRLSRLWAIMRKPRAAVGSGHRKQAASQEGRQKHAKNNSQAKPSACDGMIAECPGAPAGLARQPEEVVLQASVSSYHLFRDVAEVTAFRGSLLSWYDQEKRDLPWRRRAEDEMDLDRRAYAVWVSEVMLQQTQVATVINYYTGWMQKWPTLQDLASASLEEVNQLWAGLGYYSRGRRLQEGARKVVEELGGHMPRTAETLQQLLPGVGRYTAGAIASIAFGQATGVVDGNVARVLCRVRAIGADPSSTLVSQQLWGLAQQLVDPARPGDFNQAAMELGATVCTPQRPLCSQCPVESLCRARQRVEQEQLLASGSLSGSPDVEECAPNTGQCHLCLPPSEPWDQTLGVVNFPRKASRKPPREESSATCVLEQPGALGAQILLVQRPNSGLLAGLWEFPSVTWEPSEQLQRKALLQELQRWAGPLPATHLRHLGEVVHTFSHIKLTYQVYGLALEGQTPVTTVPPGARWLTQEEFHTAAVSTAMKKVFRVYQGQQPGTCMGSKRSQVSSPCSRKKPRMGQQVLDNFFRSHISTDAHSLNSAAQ
Conditions: Compound Concentration 10.0 uM, Hit No
Description: Inhibition of MUTYH by quantifying inhibition of MUTYH-mediated cleavage and dissociation of quenched duplex DNA oligonucleotides, measured as fluorescence at 594 nm. To generate a functional strand incision and increase turn-over this assay is coupled to APE1.
Your answer is read as %, so omit the unit and give the number.

Past entries and their recorded results:
Compound: O=C(NC[C@@H]1[C@H]2CN(C(=O)OCc3cc(C(F)(F)F)cc(C(F)(F)F)c3)C[C@@H]12)c1ccc2[nH]nnc2c1
Tested target: Adenine DNA glycosylase (Homo sapiens) (UniProt Q9UIF7)
Unit annotation: %
Observed value: -6.99
//
Compound: Cn1nc(C(=O)NCc2ccc(C(=O)O)cc2)cc1-c1ccc2[nH]ccc2c1
Tested target: Adenine DNA glycosylase (Homo sapiens) (UniProt Q9UIF7)
Unit annotation: %
Observed value: -5.73
//
Compound: COc1ccc2c(c1)O[C@H](c1ccc(OC)c(OC)c1)C[C@@H]2NC(=O)C1(c2ccc3c(c2)OC(F)(F)O3)CC1
Tested target: Adenine DNA glycosylase (Homo sapiens) (UniProt Q9UIF7)
Unit annotation: %
Observed value: 5.63
//
Compound: Cc1cccc([C@H]2CC[C@@H](N3CCN(c4cccnc4)CC3)CC2)c1 (mixture of isomers)
Tested target: Adenine DNA glycosylase (Homo sapiens) (UniProt Q9UIF7)
Unit annotation: %
Observed value: 35.8
//
Compound: C[C@H](NC(=O)c1c(C(F)F)nn(C)c1Oc1cccc(C(F)(F)F)c1)c1ccc(C(=O)O)cc1
Tested target: Adenine DNA glycosylase (Homo sapiens) (UniProt Q9UIF7);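 further: human MUTYH activity read as 594 nm fluorescence from cleavage and release of a quenched DNA duplex, coupled with APE1 for strand incision, lower signal meaning inhibition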
Unit annotation: %
Observed value: 15.2

**Query** Fill in the blank: the reported inhibition of CC[S+]([O-])c1nc(-c2cccc(OCc3ccccc3)c2)cc(C(F)(F)F)n1 (configuration not stated) is ____.
**Result** -4.2

**Query** Would you kindly share the measured inhibition for `Cn1cc(Nc2nccc(N3CC4CCC(C3)N4C(=O)[C@@H]3CC3(F)F)n2)cn1` ?
**Result** -8.86

**Query** What measured inhibition goes with `CC(C)(C)NC[C@H](O)COc1nsnc1N1CCOCC1` ?
**Result** 2.84
